# Tested on: HCV 1b-BB7 subgenomic replicon
# assay: microbe, parasite or virus in culture
# Type: cell-based, HCV genotype 1b
# test conditions: Hepatitis C virus, stable replicon, strain 1b BB7, 5% FBS; read-out: 1b BB7 5% FBS EC50
Please go through the items and note down their EC50.
# output: bare number, implied unit nM

// field: EC50; key: CC(C)CCN(c1cc2oc(-c3ccc(F)cc3)c(-c3nccc(=O)[nH]3)c2cc1C1CC1)S(C)(=O)=O ; value = 188

// field: EC50; key: CS(=O)(=O)N(CCCS(N)(=O)=O)c1cc2oc(-c3ccc(F)cc3)c(-c3ncc[nH]3)c2cc1C1CC1 ; value = 10.7

// field: EC50; key: CS(=O)(=O)N(CCCCO)c1cc2oc(-c3ccc(F)cc3)c(-c3ncc[nH]3)c2cc1C1CC1 ; value = 3.7

// field: EC50; key: CS(=O)(=O)Nc1cc2oc(-c3ccc(F)cc3)c(-c3nc(Cl)c(Cl)[nH]3)c2cc1C1CC1 ; value = 5400

// field: EC50; key: CS(=O)(=O)N(Cc1ccccc1)c1ccc2c(-c3ncc[nH]3)c(-c3ccccc3)oc2c1 ; value = 593

// field: EC50; key: CS(=O)(=O)N(CN1C(=O)c2ccccc2C1=O)c1cc2oc(-c3ccc(F)cc3)c(-c3ncc[nH]3)c2cc1C1CC1 ; value = 1580

// field: EC50; key: CS(=O)(=O)N(CCCC(F)(F)F)c1cc2oc(-c3ccc(F)cc3)c(-c3ncc[nH]3)c2cc1C1CC1 ; value = 16.1

// field: EC50; key: CS(=O)(=O)N(CCCN)c1cc2oc(-c3ccc(F)cc3)c(-c3ncc[nH]3)c2cc1C1CC1 ; value = 34

// field: EC50; key: CS(=O)(=O)CCCCN(c1cc2oc(-c3ccc(F)cc3)c(-c3ncc[nH]3)c2cc1C1CC1)S(C)(=O)=O ; value = 3.9

// field: EC50; key: CC(c1ccccc1)N(c1ccc2c(-c3ncc[nH]3)c(-c3ccccc3)oc2c1)S(C)(=O)=O (stereo not shown) ; value = 133

---

Please go through the items and note down their pIC50.
# measurement target: HCV NS5B polymerase 1a-H77-C316Y (Hepatitis C virus genotype 1a, UniProt P27958, C2736Y)
# Construct: six-histidine tag
# Sequence (P27958 2421-2990 C2736Y): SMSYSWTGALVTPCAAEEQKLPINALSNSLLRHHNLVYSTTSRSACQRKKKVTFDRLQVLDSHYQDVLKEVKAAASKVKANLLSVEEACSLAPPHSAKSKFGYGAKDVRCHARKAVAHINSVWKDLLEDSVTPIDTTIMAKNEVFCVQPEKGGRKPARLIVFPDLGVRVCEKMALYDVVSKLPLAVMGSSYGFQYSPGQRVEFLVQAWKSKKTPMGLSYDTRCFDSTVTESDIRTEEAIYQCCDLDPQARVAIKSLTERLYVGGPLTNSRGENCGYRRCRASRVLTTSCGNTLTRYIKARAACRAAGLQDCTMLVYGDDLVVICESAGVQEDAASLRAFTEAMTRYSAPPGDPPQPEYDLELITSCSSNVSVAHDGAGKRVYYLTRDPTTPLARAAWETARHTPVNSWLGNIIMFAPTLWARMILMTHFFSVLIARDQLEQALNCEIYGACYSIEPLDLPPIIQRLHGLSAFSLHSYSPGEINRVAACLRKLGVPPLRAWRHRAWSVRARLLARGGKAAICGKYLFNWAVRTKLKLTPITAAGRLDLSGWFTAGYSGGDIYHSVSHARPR
# assay: biochemical
# Method: Purified HCV NS5B polymerase enzymes were used for polymerase inhibition assays. […] The reaction was initiated by the addition of 20 μM CTP, 20 μM ATP, 0.284 μM (0.5 μCi) of 5,6-[^3H] […] After drying thoroughly in air, 30 μL of Microscint-20 scintillation cocktail (Perkin Elmer) was added to each well, and the retained cpm were determined by scintillation counting. IC50 values were determined by nonlinear regression. […]
Please express pIC50 as -log10 of the molar concentration.

// field: pIC50; key: CS(=O)(=O)N(CCCc1nnn[nH]1)c1cc2oc(-c3ccc(F)cc3)c(C3=NOCCN3)c2cc1C1CC1 [Example 180] ; value = 7.47

// field: pIC50; key: CS(=O)(=O)N(CCCCC(F)=C(F)F)c1cc2oc(-c3ccc(F)cc3)c(C3=NOCCN3)c2cc1C1CC1 [Example 120] ; value = 7.55

// field: pIC50; key: C=CCN(c1cc2oc(-c3ccc(F)cc3)c(-c3ncc[nH]3)c2cc1C1CC1)S(C)(=O)=O [Example 57] ; value = 6.63

// field: pIC50; key: CS(=O)(=O)NC(=O)CCCN(c1cc2oc(-c3ccc(F)cc3)c(-c3ncc[nH]3)c2cc1C1CC1)S(C)(=O)=O [Example 105] ; value = 6.95

// field: pIC50; key: CS(=O)(=O)N(CCCS(N)(=O)=O)c1cc2oc(-c3ccc(F)cc3)c(C3=NOCCN3)c2cc1C1CC1 [Example 124] ; value = 7.43

// field: pIC50; key: CS(=O)(=O)N(CCCCCO)c1cc2oc(-c3ccc(F)cc3)c(-c3ncc[nH]3)c2cc1C1CC1 [Example 88] ; value = 7.34

// field: pIC50; key: Cc1ncsc1CCN(c1cc2oc(-c3ccc(F)cc3)c(-c3ncc[nH]3)c2cc1C1CC1)S(C)(=O)=O [Example 78] ; value = 6.97

// field: pIC50; key: COc1ccc(CN(c2cc3oc(-c4ccc(F)cc4)c(-c4ncc(C)[nH]4)c3cc2C2CC2)S(C)(=O)=O)cc1 [Example 188] ; value = 6.65

// field: pIC50; key: COc1ccc(CN(c2cc3oc(-c4ccc(F)cc4)c(C4=NC(C)CN4)c3cc2C2CC2)S(C)(=O)=O)cc1 (centres unmarked) [Example 2a] ; value = 6.65

// field: pIC50; key: CCC1NC(c2c(-c3ccc(F)cc3)oc3cc(N(CCC(C)C)S(C)(=O)=O)c(C4CC4)cc23)=NO1 (centres unmarked) [Example 155] ; value = 6.26

// field: pIC50; key: CC[S+]([O-])CCCN(c1cc2oc(-c3ccc(F)cc3)c(C3=NOCCN3)c2cc1C1CC1)S(C)(=O)=O (centres unmarked) [Example 144] ; value = 7.05

// field: pIC50; key: CS(=O)(=O)N(Cc1cnc(-c2ccc3nc[nH]c3c2)s1)c1ccc2c(-c3ncc[nH]3)c(-c3ccccc3)oc2c1 [Example 3] ; value = 7.96

// field: pIC50; key: CS(=O)(=O)N(CC1CCCCC1)c1cc2oc(-c3ccc(F)cc3)c(-c3ncc[nH]3)c2cc1C1CC1 [Example 45] ; value = 6.53

// field: pIC50; key: CS(=O)(=O)CCCCN(c1cc2oc(-c3ccc(Nc4ccccc4)cc3)c(-c3ncc[nH]3)c2cc1C1CC1)S(C)(=O)=O [Example 169] ; value = 7.70

// field: pIC50; key: CS(=O)(=O)N(CCCn1cccc1)c1cc2oc(-c3ccc(F)cc3)c(C3=NOCCN3)c2cc1C1CC1 [Example 119] ; value = 7.39

// field: pIC50; key: CS(=O)(=O)N(CCO)c1cc2oc(-c3ccc(F)cc3)c(C3=NOCCN3)c2cc1C1CC1 [Example 136] ; value = 6.59

// field: pIC50; key: CN(C)CCCN(c1cc2oc(-c3ccc(F)cc3)c(C3=NOCCN3)c2cc1C1CC1)S(C)(=O)=O [Example 127] ; value = 6.18

// field: pIC50; key: CS(=O)(=O)N(CC1CC1(F)F)c1cc2oc(-c3ccc(F)cc3)c(-c3ncc[nH]3)c2cc1C1CC1 (centres unmarked) [Example 55] ; value = 6.44

// field: pIC50; key: CC1NC(c2c(-c3ccc(F)cc3)oc3cc(N(CCS(C)(=O)=O)S(C)(=O)=O)c(C4CC4)cc23)=NO1 (centres unmarked) [Example 12] ; value = 7.37

// field: pIC50; key: CS(=O)(=O)N(CCCO)c1cc2oc(-c3ccc(F)cc3)c(-c3ncc[nH]3)c2cc1C1CC1 [Example 65] ; value = 6.78

// field: pIC50; key: CS(=O)(=O)N(CCCF)c1cc2oc(-c3ccc(F)cc3)c(-c3ncc[nH]3)c2cc1C1CC1 [Example 85] ; value = 7.06

// field: pIC50; key: CS(=O)(=O)N(CCCS(N)(=O)=O)c1cc2oc(-c3ccc(F)cc3)c(-c3ncc[nH]3)c2cc1C1CC1 [Example 80] ; value = 7.26

// field: pIC50; key: Cn1cc(-c2ncc(CN(c3ccc4c(-c5ncc[nH]5)c(-c5ccccc5)oc4c3)S(C)(=O)=O)s2)cn1 [Example 26] ; value = 7.52
